This collection of values is drawn from paper PMC5874296.

target: TgCTPS (CTP synthase) (Toxoplasma gondii, UniProt B9Q379); experiment: pyruvate kinase/lactate dehydrogenase-coupled assay with recombinant enzyme
Sequence (B9Q379 1-652): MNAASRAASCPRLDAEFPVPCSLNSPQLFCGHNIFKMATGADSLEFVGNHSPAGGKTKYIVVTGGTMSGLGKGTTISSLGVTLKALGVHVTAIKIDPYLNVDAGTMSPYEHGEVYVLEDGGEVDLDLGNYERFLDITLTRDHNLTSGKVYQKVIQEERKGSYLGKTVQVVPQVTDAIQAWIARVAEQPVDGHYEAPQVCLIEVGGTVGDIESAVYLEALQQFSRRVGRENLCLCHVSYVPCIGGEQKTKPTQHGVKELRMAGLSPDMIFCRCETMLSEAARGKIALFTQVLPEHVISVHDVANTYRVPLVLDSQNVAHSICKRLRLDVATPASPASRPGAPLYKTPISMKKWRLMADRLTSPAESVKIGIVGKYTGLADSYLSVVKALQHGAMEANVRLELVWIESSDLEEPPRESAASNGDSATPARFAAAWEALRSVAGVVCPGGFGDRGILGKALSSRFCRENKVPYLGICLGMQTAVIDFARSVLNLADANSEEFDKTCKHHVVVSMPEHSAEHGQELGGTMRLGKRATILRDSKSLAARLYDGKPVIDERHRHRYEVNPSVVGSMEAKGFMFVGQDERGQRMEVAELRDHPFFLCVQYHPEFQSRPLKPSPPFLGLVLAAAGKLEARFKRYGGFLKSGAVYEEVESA
pIC50: −log10 of the molar value.
PROPERTY_LABEL: pIC50

pIC50 recorded for this compound, [N-]=[N+]=CC(=O)CC[C@H](N)C(=O)O [DON, 6-diazo-5-oxo-L-norleucine] , is ~7.40
